// reported pIC50 for each item listed
ASSAYED_SYSTEM: Carboxypeptidase B2 (Homo sapiens, UniProt Q96IY4)
Sequence (Q96IY4 whole entry): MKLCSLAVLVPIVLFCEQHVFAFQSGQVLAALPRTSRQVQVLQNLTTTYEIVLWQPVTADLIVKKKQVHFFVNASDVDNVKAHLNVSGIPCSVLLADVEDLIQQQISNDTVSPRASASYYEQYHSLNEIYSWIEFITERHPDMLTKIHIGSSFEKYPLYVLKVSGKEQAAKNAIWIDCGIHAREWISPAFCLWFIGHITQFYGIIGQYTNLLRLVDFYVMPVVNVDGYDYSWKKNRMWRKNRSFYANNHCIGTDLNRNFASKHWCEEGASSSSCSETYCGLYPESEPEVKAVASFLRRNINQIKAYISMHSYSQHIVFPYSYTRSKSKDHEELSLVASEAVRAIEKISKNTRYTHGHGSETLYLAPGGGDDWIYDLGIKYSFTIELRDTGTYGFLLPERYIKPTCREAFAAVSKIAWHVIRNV
TEST_DETAILS: Inhibition of human activated thrombin activatable fibrinolysis inhibitor
pIC50: −log10 of the molar value.
ATTRIBUTE_MEASURED: pIC50

compound="O=C(O)C(CS)C1CCCNC1 (stereo in doubt; 1e)" value_reported=6.35
compound="O=C(O)C(CS)C1CCNCC1 (centres undefined)" value_reported=7.43
compound="N=C(N)N1CCC(C(CS)C(=O)O)CC1 (centres undefined)" value_reported=5.97
compound="N=C(N)Nc1cccc(C(CS)C(=O)O)c1 (single isomer, unassigned; (+))" value_reported=8.30
compound="N=C(N)Nc1ccc(Cl)c(C(CS)C(=O)O)c1 (centres undefined)" value_reported=7.96
compound="N=C(N)Nc1cccc(C(CS)C(=O)O)c1 (stereo in doubt; (-)2a)" value_reported=8.52
compound="Nc1cccc(C(CS)C(=O)O)c1 (centres undefined)" value_reported=6.11
compound="N=C(N)Nc1cccc(C(CS)C(=O)O)c1 (racemic)" value_reported=8.40
compound="CC(=N)N1CCC(C(CS)C(=O)O)CC1 (centres undefined)" value_reported=5.28
compound="N=C(N)N1CCCC(C(CS)C(=O)O)C1 (stereo in doubt; 1d)" value_reported=6.78
compound="O=C(O)C(CS)CC1CCNCC1 (centres undefined)" value_reported=6.86
compound="NCC(=O)N1CCC(C(CS)C(=O)O)CC1 (centres undefined)" value_reported=5.13
compound="NC(N)=NCCCC(CS)C(=O)O (centres undefined)" value_reported=8.10
compound="N=C(N)c1ccc(C(CS)C(=O)O)cc1 (centres undefined)" value_reported=6.04

Values were extracted from ChEMBL document CHEMBL1139080.
